Test system: 422866-222-R5-J1-PDC complex spheroids viability;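 note: spheroids exposed to compounds for 7 days; 100% = DMSO vehicle control viability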
Assay: Anticancer human tumor 422866-222-R5-J1-PDC patient-derived pancreatic adenocarcinoma cell line growth inhibition [RAS]
Details: second compound 0.3 µM; first compound 0.1 µM; active compounds read low
outcome-measure: viability, T/C (%)
Respond with the bare value in %.

What value of viability, T/C has been reported for the following compound? O=C(c1ccc(F)c(F)c1Nc1ccc(I)cc1F)N1CC(O)([C@@H]2CCCCN2)C1 + CCn1c(-c2cc(N3CCN(C)CC3)cnc2C(C)OC)c2c3cc(ccc31)-c1csc(n1)CC(NC(=O)C1CC1C)C(=O)N1CCCC(N1)C(=O)OCC(C)(C)C2
15.1

What value of viability, T/C has been reported for the following compound? CCC(CC)c1cc(NC2CCC(N)C2)n2nccc2n1 (centres undefined) + CCn1c(-c2cccnc2C(C)OC)c2c3cc(ccc31)N1CCOC(CC(NC(=O)C(C(C)C)N(C)C(=O)C3(F)CCN(C(=O)C#CC(C)(C)N(C)C)CC3)C(=O)N3CCCC(N3)C(=O)OCC(C)(C)C2)C1
20.1

What value of viability, T/C has been reported for the following compound? Nc1ccn(C2OC(CO)C(O)C2(F)F)c(=O)n1 (centres undefined) + CCn1c(-c2cccnc2C(C)OC)c2c3cc(ccc31)N1CCOC(CC(NC(=O)C(C(C)C)N(C)C(=O)C3(F)CCN(C(=O)C#CC(C)(C)N(C)C)CC3)C(=O)N3CCCC(N3)C(=O)OCC(C)(C)C2)C1
12.4

What value of viability, T/C has been reported for the following compound? Cc1nc(N2CCC3(CC2)COC(C)C3N)c(CO)nc1Sc1ccnc(N)c1Cl (centres undefined) + CCn1c(-c2cccnc2C(C)OC)c2c3cc(ccc31)N1CCOC(CC(NC(=O)C(C(C)C)N(C)C(=O)C3(F)CCN(C(=O)C#CC(C)(C)N(C)C)CC3)C(=O)N3CCCC(N3)C(=O)OCC(C)(C)C2)C1
13.9

The origin of these recorded values is PubChem BioAssay AID2060901.
